Listed here: items and their measured GI50.
# Tested on: PC-3
# assayMethodText: NCI tumour cell line growth inhibition, 48 h
Calls of active or inactive are those of the source. Rule as the data show it: active = GI50 up to about 1.1 µM and inactive = higher.

compound	GI50
CCCC(=O)OC1C(CO)OC(n2cc(F)c(=O)[nH]c2=O)C1F (stereo not given)	92.3 µM (inactive)
C=C1C(=O)C23CC1CCC2C12CO[C@H](O)[C@H]1C(C)(C)[C@H](OC(C)=O)C[C@H]2OC3=O (stereo not given in full)	> 100 µM (inactive)
Cc1cc2c(cc1Cl)SC(NNc1ccc([N+](=O)[O-])cc1)=NS2(=O)=O	> 10 µM (inactive)
O=c1[nH]nc(NCc2ccccc2)c2nnn(Cc3ccccc3)c12	> 100 µM (inactive)
COc1ccc2c(c1O)[C@@]13C=C(O)C(=O)C=C1[C@@H](C2)N(C)CC3	34.8 µM (inactive)
O=C(N/N=C1\CCc2ccccc2C1)N/N=C1\CCc2ccccc2C1	> 10 µM (inactive)

Request: For the compound O[C@@H]1C[C@H](Cl)c2c(Cl)sc(Cl)c21 , report GI50.
Response: > 100 µM (inactive)

Request: Annotate the compound CSc1nc(SC)c2c(CN=[N+]=[N-])c(Br)n(Cc3ccccc3)c2n1 with its measured GI50.
Response: > 100 µM (inactive)

Request: For the compound COc1cccc2cc(C(=O)O)c(=O)oc12 , give its reported GI50.
Response: > 100 µM (inactive)

----------
# Test system: IGROV-1
# assayMethodText: NCI tumour cell line growth inhibition, 48 h
Counter-ions that a name gives are not always drawn. The source made the active and inactive calls. Rule as the data show it: active = GI50 up to about 1.1 µM and inactive = higher.
Outcome (select one): active, inactive

// known answers, use as guide
compound	assignedLabel
O=c1c(C(c2ccc(-c3ccccc3)cc2)c2c(O)oc3ccccc3c2=O)c(O)oc2ccccc12	inactive
Cc1cccc2c1C(=O)[C@@](C)([C@]1(C)Nc3cccc(C)c3C1=O)N2	inactive
C/C(=N\NC(=S)N1CCC1)c1ccccn1	active

Request: Returns: the outcome recorded for COC(=O)C(Cc1nc2ccc(Cl)cc2nc1O)C(=O)C(=O)Nc1ccccc1[N+](=O)[O-] (stereo unspecified) in this assay.
Response: inactive

Request: Please state the recorded outcome for this compound: CC(=O)c1ccc(N2CCN(C3=C(Cl)C(=O)c4c(O)ccc(O)c4C3=O)CC2)cc1
Response: inactive

Request: Called result for Oc1ccccc1C(c1cc2c(cc1O)OCO2)N1CCOCC1 (stereo unspecified)
Response: inactive

Request: // param item: CNC(C)Cc1ccccc1OC (stereo unspecified) [METHOXYPHENAMINE HYDROCHLORIDE] ; yields the recorded call
Response: inactive

Request: Dear colleague, could you share the recorded outcome for O=C(c1ccccc1)N1C(=O)N(c2ccccc2)C(=N/c2ccccc2)/C1=N\c1ccccc1 when you have a moment?
Response: inactive

Request: What outcome does the record of this test show for O=[N+]([O-])c1ccc2nc(O)c(/C=C(\O)c3ccccc3)nc2c1 ?
Response: inactive

Request: Fill in: this test's call for Cc1cc(Cl)ccc1/N=N/C(=O)NNc1ccc(Cl)cc1C is ___
Response: inactive

Request: Hi, sorry to bother you, what did the test record for c1ccc(CNCCCNCCCCNCCCNCc2ccccc2)cc1 ?
Response: inactive

Request: How did this test come out for C=CCC1(CN(C)C)CC/C(=C\c2ccc3c(c2)OCO3)C1=O (stereo unspecified) ?
Response: inactive

Request: Field: outcome | Entry: Cn1cc(C(=O)c2ccccc2)c2ccccc2c1=O
Response: inactive

----------
# System: K562
# assayMethodText: NCI tumour cell line growth inhibition, 48 h
The source made the active and inactive calls. Cut-off read from the data, not from the text of the source: active = GI50 up to about 1.1 µM and inactive = higher.
attributeMeasured: GI50

Request: Determine from records and report GI50 for COC(=O)CC(c1ccccc1)C1(c2ccccc2)SCCS1 (stereo unspecified)
Response: 133 µM (inactive)

----------
# System: EKVX
# assayMethodText: NCI tumour cell line growth inhibition, 48 h
Activity calls are given as the source filed them. No stated cut-off is given here; in the data, active = GI50 up to about 1.1 µM and inactive = higher.
Permitted responses: TRUE (active), FALSE (inactive)

compound	measuredTarget	assignedLabel
O=C1c2cc3c(cc2CC12Cc1cc4c(cc1C2=O)CCC4)CCCC3 (stereo unspecified)	EKVX	FALSE
O=C1/C(=C\c2ccc(Cl)cc2Cl)Sc2scc(-c3cccc([N+](=O)[O-])c3)[n+]21	EKVX	FALSE
O=C1CCCCCCCCCCC(=O)C2CCOCCOCCOCCC1Cc1cccc(n1)C2	EKVX	FALSE
O=C(CC(=O)N(C(=O)c1ccccc1)c1ccc(Cl)cc1)N/N=C\c1ccccc1O	EKVX	FALSE
CC(=O)OCc1ccc2c(c1)C(O)NC(=O)O2 (stereo unspecified)	EKVX	FALSE
O=C1/C(=C/c2ccccc2)CCCC/C1=C\c1ccccc1	EKVX	FALSE
Cc1ccc2c(O)cc(-c3csc4ccccc34)nc2n1	EKVX	TRUE
Oc1ccccc1C(c1cc2c(cc1O)OCO2)N1CCOCC1 (stereo unspecified)	EKVX	FALSE
CC1=Nc2c(ccc3c2C(=O)c2ccccc2C3=O)NC(c2ccncc2)C1 (stereo unspecified)	EKVX	FALSE
OCCN1CN(c2nc(N3CN(CCO)C3)nc(N3CN(CCO)C3)n2)C1	EKVX	FALSE

Next, consider the following compound.
Request: # fetch the recorded call for O=c1[nH]nc(NCc2ccccc2)c2nnn(Cc3ccccc3)c12 here
Response: FALSE

----------
# Test system: BT-549
# assayMethodText: NCI tumour cell line growth inhibition, 48 h
Active and inactive are the calls of the source. Cut-off read from the data, not from the text of the source: active = GI50 up to about 1.1 µM and inactive = higher.
Measured GI50, listed per entry for reference.

molecule	measurement
CCC/C(Cl)=N\OC(=O)Nc1cccc(C(F)(F)F)c1	10.6 µM (inactive)
C/C(N)=C/C(=O)c1[nH]c(C(=O)O)cc1C1CCN(Cc2ccccc2)C1=O (stereo unspecified)	31.8 µM (inactive)
NC(=O)CC(N)C(N)=O (stereo unspecified)	> 100 µM (inactive)

Request: For BT-549, give the measured GI50 of the entry CC(C)(C)/C(O)=C\c1nc2ccc(C(F)(F)F)cc2[nH]c1=O
Response: > 100 µM (inactive)

Request: Provide GI50, recorded with BT-549, of N=C(N)C(/N=N\c1ccccc1)C(N)=O (stereo unspecified)
Response: > 100 µM (inactive)

Request: Name the value of GI50 reported for COc1ccc2c(c1O)[C@@]13C=C(O)C(=O)C=C1[C@@H](C2)N(C)CC3 when tested on BT-549.
Response: > 100 µM (inactive)

----------
# Tested on: OVCAR-5
# assayMethodText: NCI tumour cell line growth inhibition, 48 h
Calls of active or inactive are those of the source. Cut-off read from the data, not from the text of the source: active = GI50 up to about 1.1 µM and inactive = higher.
# Lookup of reported GI50 keyed by entry

Below: 3 molecules and their reported GI50.
molecule	measurement
O=c1[nH]nc(Nc2ccccc2)c2nnn(Cc3ccccc3)c12	> 100 µM (inactive)
NCC1(N2CCOCC2)C2CCCC21CNc1ccccc1 (stereo unspecified)	> 100 µM (inactive)
Cc1c2cc[n+](C)cc2c(C)c2c1oc1ccccc12	15.6 µM (inactive)

Read the next record carefully.
Request: Return the recorded GI50 value; entry: C[Si](C)(OCCS(=O)(=O)O)C1(Cc2cccc3ccccc23)S(=O)(=O)OCCOS1(=O)=O
Response: 18.7 µM (inactive)

----------
# System: Malme-3M
# assayMethodText: NCI tumour cell line growth inhibition, 48 h
Active and inactive are the calls of the source. No stated cut-off is given here; in the data, active = GI50 up to about 1.1 µM and inactive = higher.
Your response should consist of one outcome taken from YES = active, NO = inactive

Recorded results for 8 molecules are shown here.
molecule	assignedLabel
CCOC(=O)/C(C(N)=O)=C(/O)c1cnccn1	NO
O/N=C1/CCCc2nonc21	NO
COC(NC(N)=O)C(=O)O (configuration not stated)	NO
CC(C)(C)OC(=O)c1cnc(Cl)cn1	NO
Cc1ccc2c(O)cc(-c3csc4ccccc34)nc2n1	YES
O=C(CN1CCN(c2ccccn2)CC1)N1CCCn2c1nc1ccccc1c2=O	NO
O=[N+]([O-])c1ccc2nc(O)c(/C=C(\O)c3ccccc3)nc2c1	NO
N/N=C(\N)SCCCCCCCCCCS/C(N)=N/N	NO

Switching to the query record.
Request: How was COC(=O)C(Cc1nc2ccc(Cl)cc2nc1O)C(=O)C(=O)Nc1ccccc1[N+](=O)[O-] (configuration not stated) classified in this test?
Response: NO

----------
# Tested on: HCT-116
# assayMethodText: NCI tumour cell line growth inhibition, 48 h
Active and inactive are the calls of the source. No stated cut-off is given here; in the data, active = GI50 up to about 1.1 µM and inactive = higher.
A correct response names exactly one class from yes (1) for active, no (0) for inactive

// below: answered molecules
molecule	assignedLabel
C/C(=N\NC(=S)N1CCC1)c1ccccn1	yes (1)
COc1ccc(C2C(C(=O)O)=C(CO)Oc3cc4c(cc32)OCO4)cc1 (stereo not drawn)	no (0)
O=C(CC(=O)N(C(=O)c1ccccc1)c1ccc(Cl)cc1)N/N=C\c1ccccc1O	no (0)
N#CC(=C1CCN(CCCC(=O)c2ccc(F)cc2)CC1)c1ccccc1	no (0)
OCC(O)COc1c(Cl)cc(Cl)cc1Cl (stereo not drawn)	no (0)

Request: Outcome logged for CCN(CC)c1c(C)nnn1C1OC(COC(C)=O)C(OC(C)=O)C(OC(C)=O)C1OC(C)=O (stereo not drawn) in this assay:
Response: no (0)

Request: Please state the recorded outcome for this molecule: N#CCCN(CCCN(C(=O)Nc1ccc(NC(=O)N(CCCN(CCC#N)C(N)=O)c2ccccc2)cc1)c1ccccc1)C(N)=O
Response: no (0)

Request: Name the outcome recorded for COc1cc(C)c(/C=C2/N=C(c3ccccc3)OC2=O)c([N+](=O)[O-])c1OC in the assay.
Response: no (0)
